- Tested on: LNCaP
- PROTOCOL TEXT: Cytotoxicity against human LNCAP cells after 3 days
- Type: functional, cell-based
- TEST CONTEXT: 72 h
ENDPOINT: pIC50
# pIC50 is unitless: minus log10 of the molar concentration; print number only

INPUT: Find the recorded pIC50 belonging to COc1ccccc1C(=O)/C=C/c1ccccc1[N+](=O)[O-] and report it.
OUTPUT: 5.47

* * *

- STUDY TARGET: Androgen receptor (Homo sapiens) (UniProt P10275)
- Sequence (whole entry): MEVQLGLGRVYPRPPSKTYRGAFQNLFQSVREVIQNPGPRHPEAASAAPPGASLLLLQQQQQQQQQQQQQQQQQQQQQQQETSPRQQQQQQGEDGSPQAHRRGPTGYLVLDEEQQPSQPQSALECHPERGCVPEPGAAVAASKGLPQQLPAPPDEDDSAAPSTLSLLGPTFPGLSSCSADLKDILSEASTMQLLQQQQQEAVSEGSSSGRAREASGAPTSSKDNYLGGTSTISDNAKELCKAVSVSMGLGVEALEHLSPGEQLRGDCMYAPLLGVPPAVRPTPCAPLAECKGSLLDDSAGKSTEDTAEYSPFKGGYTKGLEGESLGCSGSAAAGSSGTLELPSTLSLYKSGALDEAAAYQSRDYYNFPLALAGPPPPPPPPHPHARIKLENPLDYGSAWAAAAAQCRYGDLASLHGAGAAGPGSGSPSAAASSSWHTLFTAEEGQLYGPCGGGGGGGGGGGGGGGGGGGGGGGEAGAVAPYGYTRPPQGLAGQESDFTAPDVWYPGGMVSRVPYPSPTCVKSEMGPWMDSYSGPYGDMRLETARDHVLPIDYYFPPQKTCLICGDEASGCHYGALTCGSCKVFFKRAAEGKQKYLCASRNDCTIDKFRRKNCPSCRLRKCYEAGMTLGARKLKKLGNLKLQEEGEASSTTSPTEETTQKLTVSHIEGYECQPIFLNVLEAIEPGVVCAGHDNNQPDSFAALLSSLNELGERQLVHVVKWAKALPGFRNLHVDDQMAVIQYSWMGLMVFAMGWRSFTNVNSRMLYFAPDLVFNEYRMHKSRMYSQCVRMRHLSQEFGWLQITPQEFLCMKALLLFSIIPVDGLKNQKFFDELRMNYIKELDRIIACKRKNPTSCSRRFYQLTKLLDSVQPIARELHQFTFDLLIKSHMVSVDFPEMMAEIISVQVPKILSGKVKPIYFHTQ
- PROTOCOL TEXT: Antagonist activity at androgen receptor in human LNCAP cells assessed as decrease in prostate specific antigen mRNA level at 2.5 uM after 20 hrs by real time RT-PCR analysis
- Assay type: functional, cell-based
ENDPOINT: inhibition (%)
Numbers only here, please. The scale is %.

> print(dat)
                              smiles.string    endpoint  measured.value
1     COc1ccc(C(=O)/C=C/c2ccc(C#N)cc2)cc1OC  inhibition              85
2  COc1cccc(OC)c1C(=O)/C=C/c1ccc([N+](=O)[O-])cc1[N+](=O)[O-]  inhibition              81
3  COc1cccc(OC)c1C(=O)/C=C/c1ccc([N+](=O)[O-])cc1  inhibition              90

INPUT: Find the recorded inhibition belonging to COc1ccc(OC)c(C(=O)/C=C/c2ccc(C#N)cc2)c1 and report it.
OUTPUT: 82

INPUT: Find the recorded inhibition belonging to COc1cccc(OC)c1C(=O)/C=C/c1cccc([N+](=O)[O-])c1 and report it.
OUTPUT: 85

INPUT: Find the recorded inhibition belonging to COc1ccccc1C(=O)/C=C/c1ccccc1[N+](=O)[O-] and report it.
OUTPUT: 94
